From: PubChem BioAssay (NCI)

- Test system: HOP-62 NSCLC
- method_summary: NCI tumour cell line growth inhibition, 48 h

# molecule, GI50
records = [
    ("Nc1nnnc2nc[nH]c12", "0.907 µM"),
    ("O=C(Nc1ccc(-n2ccc3c(NC(=O)c4ccccc4)nccc32)cc1)Nc1cccc(C(F)(F)F)c1", "5.65 µM"),
    ("NC(Cc1c[nH]c2ccc(F)cc12)C(=O)O (stereo unspecified)", "480 µM"),
    ("Cc1ccc(NC(=O)Nc2c(Cl)cccc2Cl)cn1", "8.33 µM"),
    ("O=C(Cc1csc2nc(-c3ccc(Cl)cc3)cn12)N/N=C/c1ccccc1O", "4.67 µM"),
    ("Cc1ccc(/C=C/c2c(C(=O)/C=C/c3ccc(Cl)cc3)c(C)nc3ccccc23)cc1", "2.15 µM"),
]

---

Reported TGI values for the following molecules.
- Test system: OVCAR-8 ovarian
- method_summary: NCI tumour cell line growth inhibition, 48 h

# molecule, TGI
measured = [
    ("CCCCC(/C=C\\COC1CCCCO1)=C/C(=O)OCC (centres undefined)", "> 100 µM"),
    ("C[C@@H]1O[C@]2(O)[C@@H]3CCCN3S(=O)(=O)CCN2C1=O", "> 100 µM"),
    ("COc1cc(COC(=O)N2CC=CC2C(=O)O)c([N+](=O)[O-])cc1OC (centres undefined)", "> 100 µM"),
    ("COC(=O)C1C(=O)O[C@@H](c2ccc(OC)c(OC)c2OC)C1C(=O)OC (mixture of isomers)", "> 100 µM"),
    ("O=Cc1c(-c2ccccc2)[nH]c2ccccc2c1=O", "> 100 µM"),
    ("Cc1ccc(/C=C/c2c(C(=O)/C=C/c3ccc(Cl)cc3)c(C)nc3ccccc23)cc1", "6.46 µM"),
    ("CCO/C(O)=C(/C(=N)N1CCCC1)C(=O)Nc1cccc(Cl)c1", "> 100 µM"),
    ("COc1cccc(/C=C/c2ccnc3ccccc23)c1OC", "> 10 µM"),
    ("CN(C)/C=N\\c1nncc2[nH]cnc12", "> 100 µM"),
]

---

- Test system: HS 578T breast
- method_summary: NCI tumour cell line growth inhibition, 48 h

# compound, system_under_test, TGI
measured = [
    ("Cc1nc(-c2cnc(NC(C)C)n(C)c2=O)ccc1Oc1ccnc(-c2cnn(C)c2)c1", "HS 578T breast", "67.6 µM"),
    ("CCCCC(/C=C\\COC1CCCCO1)=C/C(=O)OCC (stereo not given)", "HS 578T breast", "> 100 µM"),
    ("NC(=O)CC1(O)C=C(Br)C(=O)C(Br)=C1", "HS 578T breast", "46 µM"),
    ("CSC1=C(C(=O)Nc2ccc(C)cc2)C(N)=NC1=O", "HS 578T breast", "> 100 µM"),
    ("NC1=NC(=O)/C(=C/c2ccc3ncccc3c2)S1", "HS 578T breast", "> 25 µM"),
    ("CCO/C(O)=C(/C(=N)N1CCCC1)C(=O)Nc1cccc(Cl)c1", "HS 578T breast", "> 100 µM"),
    ("CC(c1ccccc1)[C@@H](C(=O)Nc1ccc(I)cc1F)N1C(=O)N[C@H](c2ccc(OC[C@H](O)CO)cc2)C1=O (stereo not given in full)", "HS 578T breast", "> 25 µM"),
    ("CC(C)(C)NC(=O)[C@H]1CC[C@H]2[C@@H]3CC[C@H]4NC(=O)C=C[C@]4(C)[C@H]3CC[C@]12C", "HS 578T breast", "> 100 µM"),
    ("CN(C)C=NC1CCC(C(C)(C)C)CC1 (stereo not given)", "HS 578T breast", "42 µM"),
    ("NC(N)=NS(=O)(=O)c1ccc(NNC(=O)c2cccc3c(=O)c4ccccc4[nH]c23)cc1", "HS 578T breast", "> 100 µM"),
]

---

- Tested on: A498 renal
- method_summary: NCI tumour cell line growth inhibition, 48 h
assay_endpoint: TGI (µM)

# compound, assay_endpoint, value_modifier, recorded_number
data = [
    ("C=C1C(=O)O[C@H]2[C@H]1CC/C(Cn1cc(-c3cccc(Cl)c3)nn1)=C\\CC[C@@]1(C)O[C@@H]21", "TGI", "=", 2.97),
    ("CC1=C[C@@H](C)C[C@]2(C)CC[C@H](O2)[C@]23CC[C@](CO)(C[C@H](O2)[C@@H]2O[C@@](C)(CC2=O)[C@@H](O)[C@H]2CC[C@@]4(CCC[C@@H](O4)[C@H](C)C(=O)O[C@H]4C[C@H]([C@]5(O)OCC[C@H](C)[C@@H]5O)O[C@H]4C=C1)O2)O3", "TGI", "=", 0.0156),
    ("Cc1oc(N)c(S(=O)(=O)c2cc3ccccc3n(O)c2=N)c1C", "TGI", ">", 100),
    ("COc1cc(C(C[N+](=O)[O-])SC(C)=O)ccc1OCc1ccccc1 (stereo unspecified)", "TGI", "=", 15.4),
    ("COC1=C(OC)C(=O)C(Sc2ccc3ccccc3c2)=CC1=O", "TGI", "=", 29.6),
    ("Cc1cc(S(=O)(=O)Nc2n[nH]c(Nc3ccc4ccccc4c3)n2)c(S)cc1Cl", "TGI", ">", 100),
    ("O=C(CC(c1ccccc1)C1C(=O)NC(=S)NC1=O)c1ccc([N+](=O)[O-])cc1 (stereo unspecified)", "TGI", ">", 100),
    ("NC(Cc1c[nH]c2ccc(F)cc12)C(=O)O (stereo unspecified)", "TGI", "=", 1630),
    ("O=C1C=CC(=Nc2cccc3c(N=C4C=CC(=O)O4)cccc23)O1", "TGI", ">", 100),
    ("O=C(O)C(O)C(O)C(O)C(O)C(=O)O (stereo unspecified)", "TGI", ">", 100),
    ("c1ccc(-c2c3c(nc4c2CC[C@H]4NC2=NCCN2)[C@@H](NC2=NCCN2)CC3)cc1", "TGI", ">", 100),
    ("C[C@@H]1CCC2C(C)(C)C(/C=C\\C=O)C3(C)OC213 (stereo partly specified)", "TGI", ">", 100),
    ("[N-]=[N+]=Nc1ccc2c(c1)Sc1ccccc1N2CCCCN1CCN(Cc2ccc(C(=O)c3ccc(CSCC(N)C(=O)O)cc3)cc2)CC1 (stereo unspecified)", "TGI", "=", 37.7),
    ("O=C1c2ccccc2C(=O)c2c1ccc1c(=O)n(-c3ccccc3C(F)(F)F)nnc21", "TGI", "=", 3.65),
    ("CC1CCC(=O)C(C(O)CC2CC(=O)N(c3ccccc3)C(=O)C2)C1 (stereo unspecified)", "TGI", ">", 100),
    ("CCCCCCCCCCCCCCCCCCOc1ccccc1CC(=O)OCC[N+](CC)(CC)CC", "TGI", "=", 8.49),
    ("COc1cc(/C=C/C(=O)N2CCC=CC2=O)cc(OC)c1OC", "TGI", "=", 29.4),
    ("Cc1cc2ccc(OC(=O)c3ccc(N=C(N)N)cc3)cc2oc1=O", "TGI", "=", 43.9),
    ("COc1cc2c(cc1O)CN1CCC23C=C[C@@H](O)CC13 (stereo partly specified)", "TGI", ">", 100),
    ("CCOC(=O)c1c(NC(=O)c2ccccc2)sc2c3c(ccc12)OCN(C)C3", "TGI", "=", 3.21),
]

---

- System: HS 578T breast
- method_summary: NCI tumour cell line growth inhibition, 48 h
Examples of compounds with documented log10 TGI follow.
assay_endpoint: log10 TGI (log10 of the value in µM)

# compound, log10 TGI
records = [
    ("CN1CCN(c2ccc(NC(=O)c3cncnc3Nc3ccc(OCc4cccc(F)c4)c(Cl)c3)cc2)CC1", 1.06),
    ("Cc1ccc(Cl)cc1NC(=O)c1cc2ccccc2cc1O", 0.29),
    ("CCCCCC[C@@H](C)Nc1nc2ccccc2c2occc12", 1.61),
    ("C=C1C(=O)O[C@H]2C/C(C)=C/CC[C@]3(C)CCC[C@](C)(CC[C@@H]12)O3", 1.68),
    ("COC(=O)C1(C)CC2C(C)(CCC3(C)C4=CC=C5C(=CC(=O)C(O)=C5C)C4(C)CCC23C)CC1O (stereo not given)", 1.16),
    ("COc1ccc(-c2[nH]nc(N)c2-c2cc(OC)c3c(c2)OCO3)cc1", 0.72),
]

---

Catalogue of TGI values
- Tested on: MDA-MB-231 breast
- method_summary: NCI tumour cell line growth inhibition, 48 h
assay_endpoint: TGI (µM)

# compound, assay_endpoint, value_modifier, recorded_number
records = [
    ("ClCc1ccc(Cn2cnc3c(Cl)ncnc32)cc1", "TGI", "=", 20.8),
    ("CC1=C[C@@H](C)C[C@]2(C)CC[C@H](O2)[C@]23CC[C@](CO)(C[C@H](O2)[C@@H]2O[C@@](C)(CC2=O)[C@@H](O)[C@H]2CC[C@@]4(CCC[C@@H](O4)[C@H](C)C(=O)O[C@H]4C[C@H]([C@]5(O)OCC[C@H](C)[C@@H]5O)O[C@H]4C=C1)O2)O3", "TGI", "=", 0.217),
    ("COc1cc(C(c2cccc3ccccc23)N2C(=O)CCC2C(=O)O)cc(OC)c1OC (centres undefined)", "TGI", ">", 100),
    ("Nc1nnnc2nc[nH]c12", "TGI", ">", 100),
]
